# Tested on: K562
# experiment-summary: Antiproliferative activity against human K562 cells after 5 days by MTT assay
# Assay type: functional, cell-based
# stated-conditions: Homo sapiens, K562, 120 h
reported-property: pIC50
Worth noting: pIC50 values are minus log10 of concentrations stated in mol/L.

Problem: Supply measured pIC50 of COc1cc(/C=C/C(=O)c2ccccc2)cc(OC)c1OC in your reply.
Result: 5.80

Problem: Quote pIC50 reported for COc1ccc(/C=C/C(=O)c2ccc(OC)c(OC)c2OC)cc1F please.
Result: 6.46

Problem: Query pIC50 for Cc1ccc(/C=C/C(=O)c2ccc(C)cc2)cc1
Result: 4.96

Problem: Find the measured pIC50 of COc1cc(C(=O)/C=C/c2ccc(OCc3ccccc3)cc2)cc(OC)c1OC and report it.
Result: 5.00

Problem: Return pIC50 for the following compound: COc1ccc(/C=C/C(=O)c2ccc(OC)c(OC)c2)cc1
Result: 5.00

Problem: Fill in pIC50 for record COc1ccc(C(=O)/C=C/c2cc(OC)c(OC)c(OC)c2)c(O)c1
Result: 5.36

Problem: Tell me measured pIC50 for COc1cc(C(=O)/C=C/c2ccc(F)cc2)cc(OC)c1OC please.
Result: 5.82

Problem: Let me know recorded pIC50 for COc1ccc(/C=C/C(O)c2cc(OC)c(OC)c(OC)c2)cc1O (centres undefined) , thanks.
Result: 6.30

Problem: Look up and report measured pIC50 for this entry: COc1ccc(CCC(O)c2cc(OC)c(OC)c(OC)c2)cc1O (centres undefined)
Result: 6.00

Problem: Identify measured pIC50 associated with COc1ccc(/C=C/C(=O)c2ccc(OC)cc2)cc1
Result: 4.82

Problem: Complete the entry with pIC50 for COc1ccc(C(=O)/C=C/c2ccc(Cl)cc2)c(O)c1
Result: 5.01

Problem: Return value of pIC50 for input COc1ccc(/C=C(\C)C(=O)c2cc(OC)c(OC)c(OC)c2)cc1F , no commentary.
Result: 8.70

Problem: Assign pIC50 to the following record: COc1ccc(/C=C/C(=O)c2cc(OC)c(OC)c(OC)c2)cc1[N+](=O)[O-]
Result: 5.40

Problem: State, in one line, measured pIC50 of COc1ccc(/C=C/C(=O)c2cc(OC)c(OC)c(OC)c2)cc1N
Result: 8.00

Problem: Supply measured pIC50 of COc1ccc(/C=C/C(O)c2cc(OC)c(OC)c(OC)c2)cc1 (centres undefined) in your reply.
Result: 5.40

Problem: // Input: COc1ccc(C(=O)/C=C/c2ccc(OC)c(OC)c2)c(O)c1 . Output its pIC50 only.
Result: 4.80

Problem: Find the measured pIC50 of COc1cc(C(=O)/C=C/c2cc(F)c(OC)c(F)c2)cc(OC)c1OC and report it.
Result: 5.21

Problem: Give pIC50 for COc1ccc(/C=C/C(=O)c2cc(OC)c(OC)c(OC)c2)cc1
Result: 6.52

Problem: For CO/C(=C\c1ccc(OC)c(O)c1)C(=O)c1cc(OC)c(OC)c(OC)c1 , write its pIC50.
Result: 8.82

Problem: Consider the compound COc1ccc(C(=O)CCc2cc(OC)c(OC)c(OC)c2)cc1 . State its measured pIC50.
Result: 4.92

Problem: Consider the compound COc1ccc(CC(C)C(=O)c2cc(OC)c(OC)c(OC)c2)cc1O (centres undefined) . State its measured pIC50.
Result: 7.52

Problem: Return the recorded pIC50 value; entry: COc1ccc(/C=C/C(=O)c2ccc(OC)c(OC)c2OC)cc1O
Result: 8.00

Problem: Input COc1ccc([C@H]2O[C@@H]2C(=O)c2cc(OC)c(OC)c(OC)c2)cc1 (racemic) , output reported pIC50.
Result: 5.31

Problem: Let me know recorded pIC50 for COc1cc(C(=O)[C@H]2O[C@@H]2c2cc(OC)c(OC)c(OC)c2)cc(OC)c1OC (relative stereo) , thanks.
Result: 5.43

Problem: Tell us which pIC50 value is on record for COc1ccc(C(=O)/C=C/c2cc(F)c(OC)c(F)c2)c(OC)c1OC
Result: 5.32

Problem: Please give the documented pIC50 of COc1ccc(CCC(=O)c2cc(OC)c(OC)c(OC)c2)cc1O
Result: 6.00

Problem: Check the records and state pIC50 for O=C(/C=C/c1ccc2c(c1)OCO2)c1ccc2c(c1)OCCO2
Result: 5.10

* * *

# experiment-summary: Inhibition of tubulin assembly by Woods method
reported-property: pIC50
Schema: pIC50 number; meaning minus log10 of the concentration expressed in molar units.

Problem: Quickly give me recorded pIC50 for COc1ccc(C(=O)/C=C/c2ccc(OC)c(OP(=O)([O-])[O-])c2)cc1.[Na+].[Na+]
Result: 4.41

Problem: Query pIC50 for COc1cc(C(=O)/C=C/c2ccc3c(c2)OCCO3)cc(OC)c1OC
Result: 4.89

Problem: Fill in pIC50 for record COc1ccc(/C=C/C(=O)c2cc(OC)c(OC)c(OC)c2)cc1O
Result: 6.21

Problem: Could you please provide reported pIC50 for COc1ccc(/C=C(\C)C(=O)c2cc(OC)c(OC)c(OC)c2)cc1O ? Thanks!
Result: 6.34

Problem: Read the entry COc1ccc(/C=C/C(=O)c2ccc(OC)c(OC)c2)c(OC)c1 and write its reported pIC50.
Result: 4.74

Problem: Note down pIC50 recorded for COc1cc(C(=O)/C=C/c2cc(F)c(OC)c(F)c2)cc(OC)c1OC
Result: 4.92

Problem: Quickly give me recorded pIC50 for COc1ccc(/C=C/C(=O)c2cc(OC)c(OC)c(OC)c2)cc1N
Result: 5.70
